Hi there, I'd appreciate the recorded GI50 for every entry that follows.
# System: SW-620
# measurement description: Growth inhibition in SW620 cells
# Format: functional
# condition summary: Homo sapiens
One number for each entry, in nM.

mol	GI50 [nM]
COc1ccc(-n2cnnc2-c2cc(OC)c(OC)c(OC)c2)cc1O	380
COc1ccc(-n2cnnc2-c2cc(OC)c(OC)c(OC)c2)cc1	2750
COc1ccc(-n2cnnc2-c2cc(OC)c(OC)c(OC)c2)cc1F	4070

Please look at the items below and tell me GI50 for each one, in order.
1. COc1cc(-c2nncn2-c2ccc3c(ccn3C)c2)cc(OC)c1OC
2. COc1cc(-c2nncn2-c2ccc(N(C)C)cc2)cc(OC)c1OC

A)
1. 33.9
2. 75.9
